- Tested on: IGROV1 ovarian
- Experiment: NCI tumour cell line growth inhibition, 48 h
Quantity name: TGI

Before answering, review these 6 worked examples.
Compound	Tested target	Quantity name	Val
Cc1c(C(=O)N/N=C/c2ccc(Cl)cc2)nnn1-c1ccnc2c(C(F)(F)F)cccc12	IGROV1 ovarian	TGI	37 µM
COc1ccccc1N/C(=C\C(=O)C(=O)NC12CC3CC(CC(C3)C1)C2)c1ccccc1	IGROV1 ovarian	TGI	> 10 µM
COC(=O)C(/C(=N/NC(N)=O)C(=O)Nc1ccc(C)cc1)c1nc2ccc([N+](=O)[O-])cc2[nH]c1=O (centres undefined)	IGROV1 ovarian	TGI	> 100 µM
C[C@@]12[C@H]3CC[C@@H]1[C@H](O)C(=O)N2CC3	IGROV1 ovarian	TGI	> 100 µM
CC(C)(N=NC(C)(C)C(=O)NCCO)C(=O)NCCO	IGROV1 ovarian	TGI	> 100 µM
COc1ccc(/C(=C2\O[C@@H]([C@H]3COC(C)(C)O3)[C@H]3OC(C)(C)O[C@@H]23)c2cc(OC)c(OC)c(OC)c2)cc1O	IGROV1 ovarian	TGI	> 100 µM

Data request: Which TGI value is on record for "S=C(N/N=C\C=N/NC(=S)N1CCCCC1)N1CCCCC1" ?
Data returned: > 52.7 µM

Data request: Follow-up item: "CCOP(=O)(OCC)/C(C#N)=C/c1cnc(-c2ccccc2)[nH]1"
Data returned: > 100 µM

Data request: Follow-up item: CC(C)(C)C1=C(Br)C(Br)(C(C)(C)C)OP1(=O)c1ccccc1 (centres undefined)
Data returned: > 100 µM

====

- System: MDA-MB-231 breast
- Experiment: NCI tumour cell line growth inhibition, 48 h
Quantity name: TGI (µM)
Dear colleague, please return just the value in µM, with no unit written.

Molecule	TGI / µM
O=C1/C(=C/c2ccc(Br)cc2)C=C(c2ccccc2)N1CCc1ccccc1	24.7
Cc1c(C(=O)N/N=C/c2ccc(Cl)cc2)nnn1-c1ccnc2c(C(F)(F)F)cccc12	6.08
Cc1cc(I)cc(CNCCCN2CCSCC2)c1O	41.8
Brc1ccc(CCNCCN2CCCCC2)cc1	21.4
Cc1ccc2c(c1)C(=O)/C(=C/c1ncc([N+](=O)[O-])n1C)O2	6.92
CCCCC/C(C=C(C#N)C#N)=C/c1ccccc1	16.2

Data request: Which TGI value is on record for "CC1=C(CCCNS(C)(=O)=O)C2=C(C)C3(CC3)[C@@](C)(O)C(=O)C2=C1" ?
Data returned: 6.5

Data request: Follow-up item: O=C(NCCOCCOCCNc1cccc2c1C(=O)N(C1CCCNC1=O)C2=O)c1cc2c(o1)C(=O)c1ccccc1C2=O (stereo unspecified)
Data returned: 9.96

Data request: Follow-up item: "CC(C)c1ccc2[nH]c(O)c(-c3[nH]c4ccccc4c3N=O)c2c1"
Data returned: 29.8

====

- Test system: ACHN renal
- Experiment: NCI tumour cell line growth inhibition, 48 h
*1 amine or outer side, *2 acyl side, *3 side chain or, on linkers, in order; H or OH if unused. Where a SMILES comes first, the peptide text is derived from it. Bridges are numbered along the chain shown (N, C = ends). [ ]: non-standard residue; d: D form. The star is where a group is joined. ξ: configuration not given here. X34 = O=C(C(CCCCNO[*:3])N[*:1])[*:2]; Fmoc = O=C(OCC1c2ccccc2-c2ccccc21)*; ξW = NC(Cc1c[nH]c2ccccc12)C(=O)O; ξP = O=C(O)C1CCCN1
Quantity name: TGI

Before answering, review these 2 worked examples.
Compound	Val
CCCCC/C(C=C(C#N)C#N)=C/c1ccccc1	16.5 µM
O=C(O)CCCCC(CCSCc1ccccc1)SCc1ccccc1 (stereo not drawn)	> 100 µM

Data request: Which TGI value is on record for NC(=O)CNC(=O)C1CCCN1C(=O)C1CCCCNOC(=O)CC[C@@H](NC(=O)OCC2c3ccccc3-c3ccccc32)C(=O)NC(Cc2c[nH]c3ccccc23)C(=O)N1 (stereo partly drawn) (Fmoc-[dE][ξW][X34][ξP]G-NH2; ester 1-3) ?
Data returned: > 100 µM

Data request: Follow-up item: "O=C(CC(=O)n1nc(-c2ccccc2)c(N=Nc2ccccc2C(=O)O)c1-c1ccccc1)Nc1ccc(Cl)cc1"
Data returned: > 100 µM

Data request: Follow-up item: COC(=O)C1=C(C(=O)OC)C2C=CC1C1C(Cl)=C(Cl)C21 (stereo not drawn)
Data returned: > 100 µM

Data request: Follow-up item: CC(C)(C)C1=C(Br)C(Br)(C(C)(C)C)OP1(=O)c1ccccc1 (stereo not drawn)
Data returned: > 100 µM

Data request: Follow-up item: "COc1cc(/C=C2/C(=O)N(C(=O)c3ccccc3O)N=C2C)cc(OC)c1OC"
Data returned: > 100 µM

Data request: Follow-up item: "O=C(CN1CCOCC1)Nc1ccc(Cn2nnc3c2C(=O)c2nnn(Cc4ccc(NC(=O)CN5CCOCC5)cc4)c2C3=O)cc1"
Data returned: 20.2 µM

====

- Tested on: U251 CNS
- Experiment: NCI tumour cell line growth inhibition, 48 h
Reported TGI values follow for various compounds
Dear colleague, please return just the value in µM, with no unit written.

Before answering, review these 5 worked examples.
Compound	TGI / µM
O=c1oc2ccc(F)cc2c(=O)n1-c1ccc(F)cc1F	38.8
Cc1cc(N(CCOS(C)(=O)=O)CCOS(C)(=O)=O)ccc1C=Nc1ccc(-c2nc(Cc3ccccc3)sc2C)cc1	22.8
COc1ccc(/C(=C2\O[C@@H]([C@H]3COC(C)(C)O3)[C@H]3OC(C)(C)O[C@@H]23)c2cc(OC)c(OC)c(OC)c2)cc1O	48.2
COc1ccc(CNc2cc(OC)c(OC)c(OC)c2)cc1	24.3
CN(C)CCNc1cc(-c2ccccc2)nc2ccccc12	11.2

Data request: Which TGI value is on record for "O=C1c2cccc(NCCN=Cc3cc(O)ccc3O)c2C(=O)c2c(NCCN=Cc3cc(O)ccc3O)cccc21" ?
Data returned: 2.56

Data request: Follow-up item: c1ccc(C2C3=C(Nc4ncnn42)c2ccccc2C3)cc1 (stereo not given)
Data returned: 17.7

Data request: Follow-up item: "CC(C)(C)c1ccc2c(c1)CNCCNCc1cc(C(C)(C)C)ccc1OCC1(CO2)COc2ccc(C(C)(C)C)cc2CNCCNCc2cc(C(C)(C)C)ccc2OC1"
Data returned: 0.479

Data request: Follow-up item: "C=C(C(=O)C(=O)Oc1ccc(Cl)cc1)C(=O)c1ccc(C)cc1"
Data returned: 46.2

Data request: Follow-up item: "CCNCCNc1cc(-c2ccc(C(=O)OC)cc2)c(C#N)c2nc3ccccc3n12"
Data returned: 3.11

Data request: Follow-up item: "Cn1cc(-c2cnc3ccc(NC(=O)Nc4ccc(F)c(Br)c4)cc3n2)cn1"
Data returned: 3.88

Data request: Follow-up item: CC1CCC2(C(=O)O)CCC3(C)C(=CCC4C5(C)CC(O)C(O)C(C)(CO)C5C(O)CC43C)C2C1C (stereo not given)
Data returned: 45.5

Data request: Follow-up item: "N#C/C(=C1C=C/C(=N/O)C(Br)=C/1)c1ccccc1"
Data returned: 8.01

====

- Tested on: ACHN renal
- Experiment: NCI tumour cell line growth inhibition, 48 h
Quantity name: TGI

Compound	TGI
CCCc1cc(=O)c2c(C)c3[nH]c4ccc(Cl)cc4c3c(C)c2[nH]1	3.71 µM
CCCCNC1=C(C(=O)OCC)C(=O)CO1	> 100 µM
O=C1NNC=Nc2ccc(cc2)S(=O)(=O)c2ccc(cc2)N=CNNC1=O	> 100 µM

Data request: Which TGI value is on record for "CCOC(=O)CCc1cc(=O)oc2cc(O)cc(O)c12" ?
Data returned: > 100 µM

Data request: Follow-up item: Nc1ccn(C2O[C@H](CO)[C@@H](O)[C@@H]2O)c(=O)n1 (stereo partly specified)
Data returned: > 100 µM

Data request: Follow-up item: CN(C)CCCOc1nc2c(c(=O)n(C)c(=O)n2C)n1C (tested in a mixture with another compound)
Data returned: 68.8 µM

Data request: Follow-up item: "COC(=O)c1cc2c3ccccc3[nH]c2c2ncccc12"
Data returned: > 100 µM

Data request: Follow-up item: "C=C(C(=O)C(=O)Oc1ccc(Cl)cc1)C(=O)c1ccc(C)cc1"
Data returned: > 100 µM

Data request: Follow-up item: "Cc1nc2cccc([N+](=O)[O-])c2c(NCCCN(C)C)c1C"
Data returned: > 100 µM

Data request: Follow-up item: "COc1cc(O)c(/C=N/N=C(\N)NO)c(OC)c1"
Data returned: > 10 µM

Data request: Follow-up item: COc1cc(C2c3cc4c(cc3C(NCC(O)CO)C3COC(=O)[C@H]23)OCO4)cc(OC)c1OC (stereo partly specified)
Data returned: > 100 µM
